Test system: MS2 coat protein
Procedure Text: apparent KD of MS2 coat protein; higher = weaker reporter binding
Condition Context: Eterna round: R107; input ligand: none
Assign Met to entries whose apparent KD of MS2 coat protein meets or exceeds 40 nM; assign Not met to the rest.

Identify whether the reported apparent KD of MS2 coat protein of the following sequence is 40 nM or greater: CAGAACAUGAGGAUCACCCAUGUUAGGGAUACCAGCUCAGACAUGGGCCCUUGGCAGCUCUAUGGCUGACGAAAGUCAGCAUCUG [#16 SameState-TheophyllineA]
Met

Identify whether the reported apparent KD of MS2 coat protein of the following sequence is 40 nM or greater: AGUACAUGAGGAUCACCCAUGUAUCGGUACCGAGGACCGGUACGGCCGCCACUCGCAGGACAUGAGGAUCACCCAUGUGCAGCCG [SSTA DOUBLE!!! :-D #10]
Not met

Identify whether the reported apparent KD of MS2 coat protein of the following sequence is 40 nM or greater: GUCUUGGAAUCGGCCGCCACUACAUGAGGAUCACCCAUGUGGACAAAUAGGGUUUUUAAGCUCGGUAGGACCGGGAUUCGGACAU [Mamaon]
Not met

Identify whether the reported apparent KD of MS2 coat protein of the following sequence is 40 nM or greater: GUGUGGCGCUCGGCCGCCACUCAGACAUGAGGAUCACCCAUGUAGAACAUGAGGAUCACCCAUGUGAGGACCGGGAGACACACGA [Exclusion Tryptophan B GF11]
Met

Identify whether the reported apparent KD of MS2 coat protein of the following sequence is 40 nM or greater: CAAAAUAUCGGAAGGAGCGCGGGUAGGCGGGUUGGAUCACAUGAGGAUCACCCAUGUAAAUCGCAGGUAGGUCGCCGAUAACGCG [XArg-B27]
Not met

Identify whether the reported apparent KD of MS2 coat protein of the following sequence is 40 nM or greater: UGUAUGUGAUUUGAUACCAGACCAGCGGGUGUUGCAUGAGGAUCACCCAUGUAGGUUUGGGUCCCUUGGCAGCAAAUCGCAUACU [SS Theo B #24 Ms18]
Met

Identify whether the reported apparent KD of MS2 coat protein of the following sequence is 40 nM or greater: GUACAUGAGGAUCACCCAUGUAUAGUUGAAGGAGCGACCGGUGGGUCAGGUAGGUCGCAGCACAUGGCGUCAACCCGUGUAUGCC [#1 Exclusion - Arginine A Attempt #26 (Inspired by Pi)]
Not met

Identify whether the reported apparent KD of MS2 coat protein of the following sequence is 40 nM or greater: GUAAUUAUAAGAAGGAGCGUCGAAAAUGGGUAAACAUGAGGAUCACCCAUGUAAAGGGAACGACAGGUAGGUCGCUUAUGGUUAC [AstromonsSSArgB#24]
Met

Identify whether the reported apparent KD of MS2 coat protein of the following sequence is 40 nM or greater: ACAUGAGGAUCACCCAUGUGUCCUCGAAAACGAGGACCGGUACGGCCGCCACUCGAAAUAAGCGACAAGCGAAAAGCUUGUCGCA [Mat - Exclusion - Trytophan A - D22]
Met

Identify whether the reported apparent KD of MS2 coat protein of the following sequence is 40 nM or greater: GGGUAAGAUCCGGAUACCAGCGAACAUGAGGAUCACCCAUGUGAAAUAAGAUAGACUAAACGCCCUUGGCAGCCGAAAUAGCGUU [Same State Theophylline B GF 4]
Met

---

System: MS2 coat protein
Procedure Text: apparent KD of MS2 coat protein; designed switch direction (-1 OFF switch, 1 ON switch): -1; higher = weaker reporter binding
Condition Context: input ligand: none
Give measured apparent KD of MS2 coat protein for each item. Keep answers brief.
Entry rule: numbers only, all in nM.

Form field: reported apparent KD of MS2 coat protein of GUGAAACAUGAGGAUCACCCAUGUCAGGAUAUGCAUCCAGUUCACCUAUAAAGACGGUGUAGAAGGGACAAUAA [Eternabot (Original) Solution 7] (Eterna round: R97, puzzle: Exclusion 1)
21.3

Form field: reported apparent KD of MS2 coat protein of GUUAAUUGUCACAUGGGUGACAUGAGGAUCACCCAUGUCACAAGCUUUUUGUUCGUCUUAUAAUUAACCCAUGUGAC [Stov1/12-B2] (Eterna round: R97, puzzle: Sensor, turn-off variant 1)
14.4

Form field: reported apparent KD of MS2 coat protein of UGUUGUUACGCAGGAUAUGAGGAUCACCCAUAUAAGGAUAUCGAAAGAGAAGGUCUGAGGAUUACCCAGAAGGGCGGGUUAACA [pwkr exNG2 2xF5 2xFMN.29] (Eterna round: R96, puzzle: Exclusion NG 2)
115

Form field: reported apparent KD of MS2 coat protein of ACAUAGGUAGGAUAUCUAAGUUGAUACAUGAGGAUCACCCAUGUGUUACUCAAGAUCUACAGAGAAGGGCCUGAGG [Eternabot (L2) Solution 93] (Eterna round: R97, puzzle: Exclusion 5)
15.3

Form field: reported apparent KD of MS2 coat protein of UACAUGAGGAUCACCCAUGUUUUGUCGUGUAUGGUAUUUAUCUAGGAUAUCAUUUUAUUAAGUUAUGAGAAGGAGAAUAUUAAU [JMF's solution 90] (Eterna round: R96, puzzle: Exclusion NG 3)
32.3

Form field: reported apparent KD of MS2 coat protein of GUCUGGUUAGGAUAUACAGUGUCCACGAGUUAGUUGCCCUAACAUGAGGAUCACCCAUGUAGAAGGAGCGAGAA [Erisared] (Eterna round: R96, puzzle: Exclusion 2)
16.6

Form field: reported apparent KD of MS2 coat protein of AUGGGUCCUCACGGAGCUACAUGAGGAUCACCCAUGUGGAUUGAGGAUAUCCACUGCCGACGGCUGGAGAAGGCAGUUUACUGU [Ex NG3 #94] (Eterna round: R96, puzzle: Exclusion NG 3)
49.9

Form field: reported apparent KD of MS2 coat protein of CUCCUGUGAGGAUAUGUAGGCCGCCCGGUCAGCCGAGCGAGACAGAAGGCACAUGAGGAUCACCCAUGUGACUC [EX4 B.13] (Eterna round: R97, puzzle: Exclusion 4)
16.6

Form field: reported apparent KD of MS2 coat protein of UGUUUAUAUGAAGGAUAUACUUAACAUGAGGAUCACCCAUGUGGUGUUGUGAGUGAGUGAGUUUAGUAGAAGGUCAAUGAUUUU [JMF's solution 75] (Eterna round: R96, puzzle: Exclusion NG 2)
333

Form field: reported apparent KD of MS2 coat protein of UCGCUCCGUGUAGGAUAUCGCCGUACUAUGCGGCGAGAAGGACAUGAGGAUCACCCAUGUAUGUUAUUAUCACGCGUGGCGCAA [Design 61] (Eterna round: R96, puzzle: Exclusion NG 1)
16.2

Form field: reported apparent KD of MS2 coat protein of GUACUGAAGCUUUGCUUUAGUCGUACAUGAGGAUCACCCAUGUAGGAUAUGGUAGGCAUAGCUUACUAGAAGGAUAGAGUGAUC [Mat - Exclusion NG 3 - Mod of JL - D64] (Eterna round: R96, puzzle: Exclusion NG 3)
81.3

Form field: reported apparent KD of MS2 coat protein of GCCUCACUUGAGGAUCACCCAAGUCAGGAUAUUUGAAAGCAAGCCUAAAACACGCGUAAAAGAAGGGACUUGAA [Armare] (Eterna round: R97, puzzle: Exclusion 1)
20.9

Form field: reported apparent KD of MS2 coat protein of UAGCCUUUAGUUAGGAUAUGAUAUGGGAACCAUUAUCAGAAGGAACAUGAGGAUCACCCAUGUACCGACAGGGA [Eternabot (L2) Solution 9] (Eterna round: R97, puzzle: Brourd's mod of Exclusion 4)
12.3

Form field: reported apparent KD of MS2 coat protein of GUCAGCUCGUGAGGAUAUACAUGCGUGCUUCGGCACGAAUUUAAGAUCACAUGAGGAUCACCCAUGUAGAAGGUACGAGCUGAU [ENG2/3-C2] (Eterna round: R96, puzzle: Exclusion NG 2)
387

Form field: reported apparent KD of MS2 coat protein of CCUAUGUGAGGAUAUGGUGUUGGCCACAAGGAAAAGCUCCUCCAGAAGGCACAUGAGGAUCACCCAUGUCGUGG [Jolly's Folly 25 - Jieux - Exclusion 4] (Eterna round: R96, puzzle: Exclusion 4)
61.1

Form field: reported apparent KD of MS2 coat protein of ACAUGAGGAUCACCCAUGUCCGGCUGGUCCGUCUCGGCUGUCGAGGAUAUAGCUCGGUGUCCGCGCUAGAAGGUGGGAGCUGGU [Aenatbe mod 68] (Eterna round: R96, puzzle: Exclusion NG 3)
135

Form field: reported apparent KD of MS2 coat protein of AAAGUGUUAGGAUAUAGGCGCAGCCAGACGCAGGAAGCGUCCUAGAAGGAACAUGAGGAUCACCCAUGUGGGCG [Eternabot (Original) Solution 41] (Eterna round: R97, puzzle: Exclusion 4)
364

Form field: reported apparent KD of MS2 coat protein of UCGCUCCGUGUAGGAUAUCGUUGUACCCUGCGGCGAGAAGGACAUGAGGAUCACCCAUGUAUGUUAUUAUCACGCGUGGCGCAA [Design 69] (Eterna round: R96, puzzle: Exclusion NG 1)
18.3
